tested on: B cell line, TNFa signaling counterscreen reporter; assay: TNFa signaling inhibitors in B cell line, dose response, counter-screen (AID 1259334); in the data active = AC50 below about 11 µM;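 note: cells stimulated with TNFa after compound preincubation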
// allowed return values: 1 (active), -1 (inactive)

GET /call?item= CCCn1c(NC(=O)c2cccc(S(=O)(=O)N3CCCC3)c2)nc2ccccc21 returns the recorded outcome of this test.
1

* * *

test system: B cell line, TNFa signaling counterscreen reporter; experiment: TNFa signaling inhibitors in B cell line, dose response, counter-screen (AID 1259334);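 note: cells stimulated with TNFa after compound preincubation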
MEASURED ATTRIBUTE: AC50

Observe how each entry below is paired with its result.
C[C@@H]1CN([C@@H](C)CO)C(=O)Cc2cc(NS(=O)(=O)c3ccc(F)cc3)ccc2O[C@H]1CN(C)Cc1ccc(C(F)(F)F)cc1 | 5.36 µM
CNC(=S)NN=C(C)CCCC(C)=NNC(=S)NC | 2.47 µM
N#C[C@H]1[C@H](c2ccc(C#Cc3ccccc3F)cc2)[C@H](CO)N1C(=O)C1CC1 | 11.3 µM
COc1ccc2cc(-c3cc(C(=O)O)c4ccccc4n3)ccc2c1 | 6.93 µM

Next molecule, please.
Any idea what AC50 was measured for CC1CC(C)(O)CC(C(O)CC2CC(=O)NC(=O)C2)C1=O (stereo not given) ?
0.0899 µM
